# TESTED_SYSTEM: recombinant human 5-HT5A receptor (Homo sapiens)
# Sequence (P47898 whole entry): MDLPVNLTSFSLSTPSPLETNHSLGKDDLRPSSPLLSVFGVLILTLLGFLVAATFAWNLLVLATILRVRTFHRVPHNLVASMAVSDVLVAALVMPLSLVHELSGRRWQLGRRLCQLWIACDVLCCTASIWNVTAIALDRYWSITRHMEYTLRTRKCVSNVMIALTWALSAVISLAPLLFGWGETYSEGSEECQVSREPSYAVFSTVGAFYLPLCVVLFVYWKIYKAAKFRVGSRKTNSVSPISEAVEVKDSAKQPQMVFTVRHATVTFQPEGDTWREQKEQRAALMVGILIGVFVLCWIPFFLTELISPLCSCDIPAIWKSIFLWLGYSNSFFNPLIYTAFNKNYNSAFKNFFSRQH
# TEST_DETAILS: [3H]LSD radioligand binding assay, membranes of HEK-EBNA cells transiently expressing 5-HT5A receptors
# MEASUREMENT_SETUP: [3H]LSD approx. 1 nM, SPA beads, 120 min at room temperature; Ki from IC50 by Cheng-Prussoff equation
OBSERVED_PROPERTY: Ki (nM)
Dear colleague, please return just the value in nM, with no unit written.

Ask: # get_value(readout='Ki', item= O=C(c1ccc(F)cc1)c1cccc2nc(N[C@@H]3CCc4ccccc43)ccc12 [Example 83] )
Reply: 11.5

Ask: # get_value(readout='Ki', item= c1ccc2c(c1)CC[C@H]2Nc1ccc2c(Nc3cccc4[nH]ccc34)cccc2n1 [Example 71] )
Reply: 2.94

Ask: # get_value(readout='Ki', item= c1ccc2c(c1)CC[C@H]2Nc1ccc2c(NCc3cnc[nH]3)cccc2n1 [Example 43] )
Reply: 6.45

Ask: # get_value(readout='Ki', item= c1ccc2c(c1)CC(Nc1ccc3c(NCc4cccc5[nH]ccc45)cccc3n1)C2 [Example 88] )
Reply: 44.3
